- test.target: KRas G12V (Homo sapiens, UniProt P01116, G12V);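 further: KRas binding measured by TR-FRET displacement at room temperature, IC50 fitted from percent of control values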
- Sequence (P01116 1-169 isoform P01116-2 G12V): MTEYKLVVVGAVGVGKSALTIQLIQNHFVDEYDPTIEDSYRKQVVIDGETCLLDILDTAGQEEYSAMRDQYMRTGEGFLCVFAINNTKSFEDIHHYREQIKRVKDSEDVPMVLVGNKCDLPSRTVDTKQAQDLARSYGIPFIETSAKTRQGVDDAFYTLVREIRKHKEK
- procedure.details: biochemical
# note: exactly 3000 nM is not below, so it is False; use True for IC50 strictly under it

# check: IC50 < 3000 nM for CCc1c(F)ccc2cc(O)cc(-c3ncc4c(N5CCC[C@]6(CNC(=O)C6)C5)nc(OC[C@]56CCCN5C[C@@H](O)C6)nc4c3F)c12 [Example 206]
True

Would you kindly verify if IC50 of OCC1CN(c2nc(OCC34CCCN3CCC4)nc3c(F)c(-c4cccc5cccc(F)c45)ncc23)CCC1O (stereo not drawn) [Example 117] is strictly less than 3000 nM?
False

A record lists CCc1c(F)ccc2cc(O)cc(-c3ncc4c(N5CCOC[C@@](C)(O)C5)nc(OCC5(CN6CCCC6)CC5)nc4c3F)c12 [Example 321] . Is its IC50 below 3000 nM?
True

Please let me know if Fc1c(-c2cccc3cccc(F)c23)ncc2c(NCCc3cnoc3)nc(OCC34CCCN3CCC4)nc12 [Example 219] shows IC50 below 3000 nM.
False

Identify whether the compound O=C1NC(=O)C2(CCCN(c3nc(OCC45CCCN4CCC5)nc4c(F)c(-c5cccc6cccc(CF)c56)ncc34)C2)N1 (stereo not drawn) [Example 462] records IC50 below 3000 nM.
True

IC50 strictly < 3000 nM for this compound? CCc1c(F)ccc2cc(O)cc(-c3ncc4c(N5CCCC6(CC(=O)N6)C5)nc(OC[C@@]56CCCN5C[C@H](F)C6)nc4c3F)c12 (stereo partly drawn) [Example 57]
True

In the record for O=S1(=O)CC(CNc2nc(OCC34CCCN3CCC4)nc3c(F)c(-c4cccc5cccc(CO)c45)ncc23)C1 [Example 443] , is IC50 less than 3000 nM?
False

# TODO verify IC50 < 3000 nM strictly for this compound: CCc1c(F)ccc2cc(O)cc(-c3ncc4c(N5CC[C@@H](C)[C@@H](O)C5)nc(OC[C@@]56CCCN5C[C@H](F)C6)nc4c3F)c12 [Example 189]
True

API: query returns whether the compound falls strictly under 3000 nM in IC50. Query: O=C1CC2(CCCN(c3nc(OCC45CCCN4CCC5)nc4c(F)c(-c5cccc6cccc(CO)c56)ncc34)C2)N1 (stereo not drawn) [Example 433]
False

Would you kindly verify if IC50 of CCc1c(F)ccc2cc(O)cc(-c3ncc4c(N5CCCCCC5)nc(OC[C@@]56CCCN5C[C@H](F)C6)nc4c3F)c12 [Example 317] is strictly less than 3000 nM?
True

Consider the compound CCc1c(F)ccc2cc(O)cc(-c3ncc4c(N5CCC[C@@](C)(O)C5)nc(OC[C@]56CCCN5[C@@H](CO)CC6)nc4c3F)c12 [Example 303] . Is its IC50 strictly less than 3000 nM?
True

Just wondering, is IC50 of NS(=O)(=O)CC1CCCN(c2nc(OC[C@@]34CCCN3C[C@H](F)C4)nc3c(F)c(-c4cc(O)cc5ccc(F)c(Cl)c45)ncc23)C1 (stereo partly drawn) [Example 414] below 3000 nM?
True

Lab note: confirm whether the reported IC50 for this compound is below 3000 nM, equality not counting. compound: Fc1c(-c2cccc3cccc(F)c23)ncc2c(N3CCCC4(CC4)C3)nc(OCC34CCCN3CCC4)nc12 [Example 114]
True

Does this compound meet the criterion IC50 < 3000 nM? OC1CCC12CCCN(c1nc(OCC34CCCN3CCC4)nc3c(F)c(-c4cccc5cccc(F)c45)ncc13)C2 (stereo not drawn) [Example 233]
False

Does the reported IC50 of the following compound sit strictly below 3000 nM? NC(=O)c1cc2n(n1)CCCN(c1nc(OCC34CCCN3CCC4)nc3c(F)c(-c4cccc5cccc(F)c45)ncc13)C2 [Example 258]
True

# TODO verify IC50 < 3000 nM strictly for this compound: CCc1c(F)ccc2cc(O)cc(-c3ncc4c(N5CCCC6(CC(=O)N6)C5)nc(OCC5(CN(C)C)CC5)nc4c3F)c12 (stereo not drawn) [Example 513]
True

Does the reported IC50 of the following compound sit strictly below 3000 nM? CN(Cc1cccnc1N)c1nc(OCC23CCCN2CCC3)nc2c(F)c(-c3cccc4cccc(F)c34)ncc12 [Example 79]
True

Hello, is IC50 of the following compound strictly smaller than 3000 nM? CCc1c(F)ccc2cc(O)cc(-c3ncc4c(N5CCCn6nc(C(=O)N(C)C)cc6C5)nc(OC[C@@]56CCCN5C[C@H](F)C6)nc4c3F)c12 [Example 326]
True

hey, is IC50 for C#Cc1c(F)ccc2cc(O)cc(-c3ncc4c(N5CCCC6(CNC(=O)C6)C5)nc(OC[C@@]56CCCN5C[C@H](F)C6)nc4c3F)c12 (stereo partly drawn) [Example 24] lower than 3000 nM or not?
True

Bench note: check whether CCc1c(F)ccc2cc(O)cc(-c3ncc4c(NCc5n[nH]cc5C)nc(OC[C@@]56CCCN5C[C@H](F)C6)nc4c3F)c12 [Example 161] shows IC50 below 3000 nM
True

In plain terms, does Nc1ncccc1CNc1nc(OCC23CCCN2CCC3)nc2c(F)c(-c3cccc4cccc(F)c34)ncc12 [Example 70] come in under 3000 nM for IC50?
True

# TODO verify IC50 < 3000 nM strictly for this compound: NC(=O)C1COCCN(c2nc(OCC34CCCN3CCC4)nc3c(F)c(-c4cccc5cccc(F)c45)ncc23)C1 (stereo not drawn) [Example 270]
True

Strictly below 3000 nM: is that where IC50 of Fc1c(-c2cccc3cccc(F)c23)ncc2c(NCCc3c[nH]nn3)nc(OCC34CCCN3CCC4)nc12 [Example 115] sits?
False

Does the reported IC50 of Fc1c(-c2cccc3cccc(Cl)c23)ncc2c(NCCCOC(F)F)nc(OCC34CCCN3CCC4)nc12 [Example 474] stay below 3000 nM?
True

Given C#Cc1c(F)ccc2cc(O)cc(-c3ncc4c(N5CCCC(O)C5)nc(OCCN(C)C)nc4c3F)c12 (stereo not drawn) [Example 387] , is recorded IC50 strictly lower than 3000 nM?
True

Dear reviewer, please state whether CC1(O)CCCN(c2nc(OCC3(CN4CCCC4)CC3)nc3c(F)c(-c4cccc5cccc(F)c45)ncc23)C1 (stereo not drawn) [Example 257] has IC50 strictly beneath 3000 nM.
False
